Measured values drawn from the SangsterLogP compilation for this set.

experiment: method code SF, from DOI: 10.1021/jm00226a007, PMID: 817022; settings: pH 7.4

# Cpd smiles, logD
rows = [
    ("COc1cc(C(=O)NN)ccn1", -0.1),
]

---

assay: method code SF-AS, from DOI: 10.1021/jm00226a007, PMID: 817022; conditions: pH 7.4
Quantity: logD

# Cpd smiles, Test value
data = [
    ("NNC(=O)c1ccnc(Cl)c1", 0.11),
    ("CC(=O)Nc1cc(C(=O)NN)ccn1", -1.25),
    ("CCc1cc(C(=O)NN)ccn1", 0.12),
    ("NNC(=O)c1ccnc(Cc2ccccc2)c1", 1.01),
    ("CC(=O)NCc1cc(C(=O)NN)ccn1", -1.58),
    ("CCN(CC)c1cc(C(=O)NN)ccn1", 1.12),
    ("NNC(=O)c1ccnc(F)c1", -0.11),
    ("NNC(=O)c1ccnc(Br)c1", 0.25),
    ("CCOc1cc(C(=O)NN)ccn1", 0.48),
    ("NNC(=O)c1ccnc([N+](=O)[O-])c1", -0.76),
    ("Cc1cc(C(=O)NN)ccn1", -0.37),
    ("NNC(=O)c1ccnc(-c2ccccc2)c1", 1.36),
    ("NNC(=O)c1ccnc(I)c1", 0.52),
    ("CC(C)Cc1cc(C(=O)NN)ccn1", 1.02),
    ("NNC(=O)c1ccnc(N)c1", -0.98),
    ("CCCc1cc(C(=O)NN)ccn1", 0.63),
]
